Ref: paper PMC12040169

- assay.details: in vitro
- measurement.parameters: human, hela cells, % viability
reported.metric: viability at 28.5 h, 10 µM (%)
Respond with the bare value in %.

Would you please look over these solved cases?
Short answer for CC(C)CCN[C@H]1CO[C@H]2[C@@H]1OC[C@@H]2n1nnnc1-c1ccccc1 : viability at 28.5 h, 10 µM was 88.1

viability at 28.5 h, 10 µM in this record for CC(C)Nc1nccnc1OCCN1CCOCC1 : 104

So for O=C(CN1CCN(S(=O)(=O)N2CCCCCC2)CC1)Nc1cc(Cl)ccc1Cl , the logged viability at 28.5 h, 10 µM turned out to be 90.1

Entry Cc1ccccc1OCc1nnc(SCC(=O)NC2CCCCC2)n1C — recorded viability at 28.5 h, 10 µM = 82.5

Briefly, viability at 28.5 h, 10 µM measured for Cc1nnc(CN(C)C2CCN(CC3CCCC3)C2)n1C (stereo not shown) : 106

Recorded viability at 28.5 h, 10 µM (compound O=C(/C=C(\c1ccccc1)n1cncn1)c1ccc(Cl)cc1 ): 90.7

More entries:
For reference, reported viability at 28.5 h, 10 µM for CCn1nc2c3ccccc3nc(C3CC3)n2c1=O stands at 68.8

In plain terms, O=[N+]([O-])c1cccnc1Oc1cccc2cccnc12 has a documented viability at 28.5 h, 10 µM of 97.4

For record c1ccc(Oc2cccc(C(N3CCOCC3)N3CCOCC3)c2)cc1 the listed viability at 28.5 h, 10 µM is 104

Lab note: measured viability at 28.5 h, 10 µM of O=C(O)c1ccccc1C(=O)OCCN1CCOCC1 was 85.4

Entry O=C1N=C(N2CCCCCC2)SC1CC(=O)N1CCCc2ccccc21 (stereo not shown) — recorded viability at 28.5 h, 10 µM = 93.4
